biological target: Human liver Cathepsin B (Homo sapiens); assay: Cathepsin B cleavage assay of linker-payloads; conditions: Table 1D
*1 amine or outer side, *2 acyl side, *3 side chain or, on linkers, in order; H or OH if unused. Where a SMILES comes first, the peptide text is derived from it. [ ]: non-standard residue; d: D form. The star is where a group is joined. X4 = C[N+](C)(C)CCNC(=O)CCOCCOCCOCCOCCn1nnc2c1CCCCCC2OCC(=O)*; Dolaproine = CO[C@@H]([C@@H]1CCCN1)[C@@H](C)C(=O)O; Dil = CC[C@H](C)[C@H](NC)[C@@H](CC(=O)O)OC; PABC = O=C(OCc1ccc(N[*:1])cc1)[*:2]; DBCO = C1#Cc2ccccc2N(*)Cc2ccccc21; X1 = C[C@@H](N*)[C@@H](O)c1ccccc1; Cit = NC(=O)NCCC[C@H](N)C(=O)O; PEG4 = NCCOCCOCCOCCOCCC(=O)O; Suc = O=C(CCC(=O)[*:2])[*:1]; NMeV = CN[C@H](C(=O)O)C(C)C
Record form. Attribute: CapB cleavage rate (%) at 4 hrs. Fill in for each entry.
One number for each entry, in %.

| molecule | CapB cleavage rate (%) at 4 hrs |
| --- | --- |
| CC[C@H](C)[C@@H]([C@@H](CC(=O)N1CCC[C@H]1[C@H](OC)[C@@H](C)C(=O)N[C@H](C)[C@@H](O)c1ccccc1)OC)N(C)C(=O)[C@@H](NC(=O)[C@H](C(C)C)N(C)C(=O)OCc1ccc(NC(=O)[C@H](CCCNC(N)=O)NC(=O)[C@@H](NC(=O)[C@@H](CCCCNC(=O)COC2CCCCCc3c2nnn3CCOCCOCCOCCOCCC(=O)NCC[N+](C)(C)C)NC(=O)CCOCCOCCOCCOCCNC(=O)CCC(=O)N2Cc3ccccc3C#Cc3ccccc32)C(C)C)cc1)C(C)C (some centres unmarked) [Ib] ({DBCO-Suc-PEG4}-[dK](X4)V[Cit][PABC][NMeV]V[Dil][Dolaproine]-X1) | 65 |

Now look at this entry.
Q: Indicate its recorded CapB cleavage rate (%) at 4 hrs; the molecule in question is CCCC1O[C@@H]2C[C@H]3[C@@H]4C[C@H](F)C5=CC(=O)C=C[C@]5(C)[C@@]4(F)[C@@H](O)C[C@]3(C)[C@]2(C(=O)CNC(=O)OCc2ccc(NC(=O)[C@H](CCCNC(N)=O)NC(=O)[C@@H](NC(=O)[C@@H](CCCCNC(=O)COC3CCCCCc4c3nnn4CCOCCOCCOCCOCCC(=O)NCCS(=O)(=O)O)NC(=O)CCOCCOCCOCCOCCNC(=O)CCC(=O)N3Cc4ccccc4C#Cc4ccccc43)C(C)C)cc2)O1 (some centres unmarked)
A: 79.6

Values compiled from patent US20240408223A1.
